B1: H2-Kb / Ed23 (parent complex)
chain 1: QQKVQQSPESLTVSEGAMASLNCTFSDRSSDNFRWYRQHSGKGLEVLVSIFSDGEKEEGSFTAHLNRASLHVFLHIREPQPSDSALYLCAVRGFWTNKVVFGTGTRLQVLP
chain 2: AQTIHQWPVAEIKAVGSPLSLGCTIKGKSSPNLYWYWQATGGTLQQLFYSITVGQVESVVQLNLSASRPKDDQFILSTEKLLLSHSGFYLCAWSPRQSSYEQYFGPGTRLTVL
chain 3: not shown
chain 4: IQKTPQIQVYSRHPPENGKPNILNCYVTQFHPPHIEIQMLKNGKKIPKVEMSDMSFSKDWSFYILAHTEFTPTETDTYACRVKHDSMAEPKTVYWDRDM
chain 5: SIINFEKL

Variants of: B1
Test: % of reporter cells activated (NFAT-GFP), raw; note: test concentration or dose not given here
PARAMETER: ratio to parent

# annotated cases, reported ratio to parent shown
Suppose we examine the variant chain 5 N4M ; what ratio to parent value has been reported?
0.269

Then chain 5 E6W ?
0.0503

Then chain 5 I3M ?
1.24

Then chain 5 K7Y ?
0.654

Then chain 5 K7E ?
0.0934

Then chain 5 L8I ?
1.15

Then chain 5 I3T ?
1.22

Then chain 5 E6P ?
0.0439

a: chain 5 F5V
b: chain 5 S1H
c: chain 5 S1I
d: chain 5 N4Q
e: chain 5 K7N
Arrange by ratio to parent, high to low. Form entry: ranked labels (order as requested).
a, e, b, c, d

A: chain 5 I3V
B: chain 5 I3R
Which numeric ratio to parent is bigger, that of A or that of B ? Refer to your chosen entry by its label in the reply.
A
(A: 1.41, B: 0.636)

a: chain 5 I2S
b: chain 5 K7V
c: chain 5 K7I
Arrange by ratio to parent, high to low. Form entry: ranked labels (order as requested).
a, b, c
(a: 1.12, b: 0.48, c: 0.142)

P: chain 5 I2Q
Q: chain 5 K7A
R: chain 5 L8V
S: chain 5 S1N
Arrange by ratio to parent, high to low. Form entry: ranked labels (order as requested).
P, R, Q, S

All figures here come from paper PMC11480844.
